molecular target: HLA-B*40:02; experiment: IEDB peptide-MHC binding, purified MHC/competitive/radioactivity; filed as Kd, often an IC50 or EC50 that approximates it; bounds were set here for any values at or beyond the usual limits of such assays; conditions: source organism: Mammarenavirus guanaritoense
measured_quantity: Kd (µM)

residues	target_or_system	reported
TEQFINYCL	HLA-B*40:02	0.0323

---

Here the recorded pKd is given for each entry.
biological target: HLA-A*69:01; experiment: IEDB peptide-MHC binding, purified MHC/direct/fluorescence; filed as Kd, often an IC50 or EC50 that approximates it; bounds were set here for any values at or beyond the usual limits of such assays; settings: source organism: Camelpox virus M-96
pKd: −log10 of the molar value.
measured_quantity: pKd

residues	target_or_system	reported
EIKDRILSY	HLA-A*69:01	≤ 4.70
DILASIIDY	HLA-A*69:01	≤ 4.70
